Source listed as PubChem BioAssay (NCI).

Each record here notes measured TGI.
# Test system: NCI-H460 lung
# ASSAY NAME: NCI tumour cell line growth inhibition, 48 h

1. COc1cc([C@H]2Oc3c(OC)cc(CCCO)cc3[C@@H]2CO)ccc1O
> 100 µM
2. CCCCCCCCCCCCCP(=O)(NCC(N)=O)OCC (stereo unspecified)
39.8 µM
3. CC1=NN(C(=O)c2ccc(Cl)cc2)C(=O)/C1=C/c1ccc(Cl)cc1
> 100 µM
4. O=c1[nH]cnc2sc(=S)c3c(c12)CCC3
> 100 µM
5. CSCCCNC(=O)c1csc(-c2csc(CCNC(=O)CNC(=O)CNC(=O)CNC(=O)OC(C)(C)C)n2)n1
> 100 µM

**Query** Which TGI reading was recorded for the compound CN(C)Cc1cc(C(=O)/C=C/c2cccc(Cl)c2)cc(CN(C)C)c1O ?
**Result** 11.4 µM

**Query** Which TGI reading was recorded for the compound NNc1c2ccccc2nc2ccccc12 ?
**Result** 15.5 µM

**Query** Which TGI reading was recorded for the compound Cc1nn(C(=O)c2ccncc2)c2c1C(c1cccc([N+](=O)[O-])c1)SC(N)=N2 (stereo unspecified) ?
**Result** > 10 µM

**Query** Which TGI reading was recorded for the compound C=CCC1(CC)C(=O)NC(=O)NC1=O ?
**Result** > 100 µM

**Query** Which TGI reading was recorded for the compound COc1ccc2c(c1)CC1Cc3ccccc3CCN1C2 (stereo unspecified) ?
**Result** > 100 µM

**Query** Which TGI reading was recorded for the compound CCn1c2ccc(O)c(C(=O)OC)c2c2cc3ccccc3c(O)c21 ?
**Result** 54.9 µM

----------
# System: OVCAR-5 ovarian
# ASSAY NAME: NCI tumour cell line growth inhibition, 48 h
Each record here notes measured TGI.
Supply the numeric figure in µM, leaving out any unit text.

**Query** Which TGI reading was recorded for the compound CC(=O)O.CC(=O)O.CC(=O)O.CC(=O)O.[Rh].[Rh] ?
**Result** 52.4

**Query** Which TGI reading was recorded for the compound COC1=CC(=O)c2c(O)c3c(c(O)c2C1=O)C[C@](C)(O)C[C@@H]3O ?
**Result** 27.8

----------
# Tested on: SF-268 CNS
# ASSAY NAME: NCI tumour cell line growth inhibition, 48 h
REPORTED METRIC: TGI

1. Cc1nc2c(sc(=S)n2-c2ccccc2)c2nc3ccccc3n12
> 100 µM
2. COC(=O)C#CCC1CCCC1C1SCCS1 (configuration not stated)
> 100 µM
3. Cc1ccnc(NC(=S)Nc2cccc(Cl)c2)c1
> 100 µM

Moving on to another compound below.
**Query** Which TGI reading was recorded for the compound COc1cc2c(cc1-c1coc3cc(OCC=C(C)C)ccc3c1=O)OCO2 ?
**Result** > 100 µM

----------
# Test system: UO-31 renal
# ASSAY NAME: NCI tumour cell line growth inhibition, 48 h
REPORTED METRIC: TGI

Use these answered entries as a reference point.
1. CC(=O)c1ccc(N2CCN(C3=CC(=O)c4c(O)ccc(O)c4C3=O)CC2)cc1
35.5 µM
2. Cc1ccc(NC(=O)CC2SC(N)=NC2=O)cc1C (configuration not stated)
> 100 µM
3. O=C(O)c1cc(Cl)cc2c1NC1(N2)C(=O)Nc2ccccc21 (configuration not stated)
> 100 µM

**Query** Which TGI reading was recorded for the compound C[C@@H]1CC[C@@H](C)[C@](C)(CCc2ccoc2)C/C=C\C=C/1C(=O)O ?
**Result** > 50 µM

**Query** Which TGI reading was recorded for the compound O=C(N/C(=C\c1cc(Cl)ccc1Cl)c1nc2ccc(Cl)cc2[nH]1)c1ccccc1 ?
**Result** 24.4 µM

**Query** Which TGI reading was recorded for the compound ONC1=Nc2ccccc2OCc2cc(Br)c(Br)cc2COc2ccccc2N=C1NO ?
**Result** > 54.4 µM

----------
# Test system: K-562 leukemia
# ASSAY NAME: NCI tumour cell line growth inhibition, 48 h
Each record here notes measured TGI.

Use these answered entries as a reference point.
1) COc1cccc(NC(=O)CC(=O)NNCC(=O)Nc2nnc(-c3ccc(N(CCC#N)S(=O)(=O)c4ccccc4)cc3)s2)c1
> 100 µM
2) COC1=CC(=O)c2c(O)c3c(c(O)c2C1=O)C[C@](C)(O)C[C@@H]3O
19.4 µM

**Query** Which TGI reading was recorded for the compound COc1ccc2c(c1OC)C(=O)O[C@@H]2[C@H]1c2cc3c(cc2CCN1C)OCO3 ?
**Result** > 100 µM

**Query** Which TGI reading was recorded for the compound COc1ccc(-c2ccc(/C=N/n3c(COc4ccccc4Cl)n[nH]c3=S)o2)c([N+](=O)[O-])c1 ?
**Result** > 100 µM

**Query** Which TGI reading was recorded for the compound CCn1c2ccc(O)c(C(=O)OC)c2c2cc3ccccc3c(O)c21 ?
**Result** > 100 µM

**Query** Which TGI reading was recorded for the compound O=c1cccc(C#CC#CCCCO)o1 ?
**Result** > 100 µM

----------
# Test system: TK-10 renal
# ASSAY NAME: NCI tumour cell line growth inhibition, 48 h
Each record here notes measured TGI.

Use these answered entries as a reference point.
1. CN(C)Cc1cc(C(=O)/C=C/c2cccc(Cl)c2)cc(CN(C)C)c1O
22 µM
2. Cc1c(C#N)c2nnn(-c3ccccc3)c(=O)n2c1-c1ccccc1
> 100 µM
3. CCOC(=O)/C(C#N)=C(/NNc1ccccc1)c1ccncc1C(=O)O
> 100 µM
4. ONC1=Nc2ccccc2OCc2cc(Br)c(Br)cc2COc2ccccc2N=C1NO
> 59.6 µM
5. CCC1C(=O)OCc2c1cc1n(c2=O)C(CC)c2c-1nc1ccccc1c2Cl (stereo not given)
> 100 µM

Moving on to another molecule below.
**Query** Which TGI reading was recorded for the molecule CC1=C(Cl)C[C@@H](/C(C)=C\Cl)O[C@@]1(O)C(Br)Br ?
**Result** > 100 µM

----------
Each record here notes measured TGI.
# Tested on: NCI-H460 lung
# ASSAY NAME: NCI tumour cell line growth inhibition, 48 h

Use these answered entries as a reference point.
1) CC(=O)c1ccc(N2CCN(C3=CC(=O)c4c(O)ccc(O)c4C3=O)CC2)cc1
> 100 µM
2) NC(=O)C12CC3CC(CC(Br)(C3)C1)C2
> 100 µM
3) C=C1CC[C@@H]2[C@](C)(COC(C)=O)[C@H](OC(C)=O)CC[C@@]2(C)[C@@H]1CC(Nc1ccc(S(=O)(=O)Nc2nccs2)cc1)C1=CCOC1=O (some centres not stated)
25.3 µM
4) NC(=O)c1cccc(-c2cc(C(N)=O)ccc2Cl)c1
54 µM
5) CC(=O)O.CC(=O)O.CC(=O)O.CC(=O)O.[Rh].[Rh]
> 100 µM
6) O=C(CCc1nc(=S)[nH][nH]1)Nc1cccc(C(F)(F)F)c1
> 100 µM
7) Cc1nn(C)c2nc3ccc(Cl)cc3c(-c3ccccc3)c12
> 100 µM
8) C[C@@H]1CC[C@@H](C)[C@](C)(CCc2ccoc2)C/C=C\C=C/1C(=O)O
> 50 µM

**Query** Observed TGI on NCI-H460 lung for Cn1nnc2c(C(N)=O)ncn2c1=O , please.
**Result** > 100 µM

**Query** Observed TGI on NCI-H460 lung for Oc1nc(N/N=C/c2ccccc2)[nH]c1/C=C1\C=Nc2ccccc21 , please.
**Result** > 100 µM

**Query** Observed TGI on NCI-H460 lung for N#CC12C(=O)N3C(=NC(c4ccccc4)NC3c3ccccc3)C1(C#N)C(c1ccccc1)NC1=C2CCCC1 (configuration not stated) , please.
**Result** > 100 µM

**Query** Observed TGI on NCI-H460 lung for CCC(=O)NC(OCC1(CC)COC1)(C(F)(F)F)C(F)(F)F , please.
**Result** > 100 µM

----------
# System: MDA-MB-435
# ASSAY NAME: NCI tumour cell line growth inhibition, 48 h
REPORTED METRIC: TGI

**Query** Observed TGI on MDA-MB-435 for NNc1c2ccccc2nc2ccccc12 , please.
**Result** 23.4 µM

**Query** Observed TGI on MDA-MB-435 for CSc1ncc2c(n1)-c1ccccc1OC2NC(C)(C)C (stereo not given) , please.
**Result** > 100 µM

**Query** Observed TGI on MDA-MB-435 for CCOC(=O)c1c(NCc2ccccc2)n(-c2ccccc2)c(=S)n(-c2ccccc2)c1=O , please.
**Result** > 100 µM

**Query** Observed TGI on MDA-MB-435 for CC1C2CC(C/C2=N/O)C1(C)C (stereo not given) , please.
**Result** > 100 µM

**Query** Observed TGI on MDA-MB-435 for COC(=O)/C=C/c1cc(OC)c2oc(-c3ccc(OC)c(OC)c3)c(C(=O)OC)c2c1 , please.
**Result** > 100 µM

**Query** Observed TGI on MDA-MB-435 for c1csc(-c2csc(-c3ccsc3)c2)c1 , please.
**Result** > 100 µM
